Biological target: hPAD4 (Homo sapiens)
Experiment: hPAD4 RFMS (RapidFire mass spectrometry) PAD4 inhibition assay
Assay type: biochemical
Conditions: hPAD4 enzyme, RFMS readout; read-out: hPAD4 RFMS IC50
Each entry below carries its reported IC50.

Dear colleague, please send me the reported IC50 for COc1cc(C(=O)N2CC[C@@H](F)[C@H](N)C2)cc2nc(-c3cc4cccnc4n3CC3CC3)n(C)c12 when you can.
1000 to 5000 nM

Dear colleague, please send me the reported IC50 for CO[C@H]1CCN(C(=O)c2cc(OC(F)F)c3c(c2)nc(-c2cc4cccnc4n2CC2CC2)n3C)C[C@H]1N when you can.
1000 to 5000 nM

====

Biological target: hPAD4 (Homo sapiens, UniProt Q9UM07)
Sequence (Q9UM07 whole entry): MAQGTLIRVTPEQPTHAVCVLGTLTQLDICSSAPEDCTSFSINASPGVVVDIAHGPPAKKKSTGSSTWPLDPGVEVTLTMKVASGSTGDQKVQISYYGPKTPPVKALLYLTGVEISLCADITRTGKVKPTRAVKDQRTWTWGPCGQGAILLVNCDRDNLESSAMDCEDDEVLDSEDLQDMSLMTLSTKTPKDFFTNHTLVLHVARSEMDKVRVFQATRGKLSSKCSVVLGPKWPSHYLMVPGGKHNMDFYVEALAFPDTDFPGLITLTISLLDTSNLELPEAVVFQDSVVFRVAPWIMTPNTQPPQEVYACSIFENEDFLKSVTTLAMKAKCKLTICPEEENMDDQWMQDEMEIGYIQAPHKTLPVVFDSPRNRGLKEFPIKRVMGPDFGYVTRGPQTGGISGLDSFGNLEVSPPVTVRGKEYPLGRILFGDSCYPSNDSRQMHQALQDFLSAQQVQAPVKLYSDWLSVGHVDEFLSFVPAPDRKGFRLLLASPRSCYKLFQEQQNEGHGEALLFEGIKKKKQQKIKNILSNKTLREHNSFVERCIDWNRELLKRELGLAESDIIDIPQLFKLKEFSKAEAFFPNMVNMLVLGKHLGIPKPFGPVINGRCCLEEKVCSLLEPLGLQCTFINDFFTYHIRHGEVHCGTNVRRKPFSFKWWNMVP
Assay: hPAD4 RFMS (RapidFire mass spectrometry) PAD4 inhibition assay;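 for hPAD4 RFMS pIC50: grade E means pIC50 at most 4 and F means pIC50 4.0 to 5.0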
Format: biochemical
Conditions: hPAD4 enzyme, RFMS readout; pIC50=−log(IC50); read-out: hPAD4 RFMS pIC50 (converted)
Each entry below carries its reported IC50.

A selection of reference data follows.
- compound: "COc1cc(C(=O)N2C[C@H]3CCC2[C@H]3N)cc2nc(-c3cc4cc(N(C)CCC5CC5)ccc4n3CC3CC3)n(C)c12 [Compound I-373]"
  meas.value: "1 to 10 µM"
- compound: "Cn1c(-c2cc3cccnc3n2CC2CC2)nc2cc(C(=O)N3CC4CCC(C3)C4N)ccc21 (stereo not drawn) [Compound I-50]"
  meas.value: "> 100 µM"
- compound: "Cn1c(-c2cc3cccnc3n2CC2CC2)nc2cc(C(=O)N3CCC[C@@H](N)C3)cc(OCC(F)(F)F)c21 [Compound I-59]"
  meas.value: "1 to 10 µM"

Please respond with reported IC50 (system hPAD4 (Homo sapiens, UniProt Q9UM07)) for COc1cc(C(=O)N2C[C@H](N)CC[C@@H]2CO)cc2nc(-c3cc4cccnc4n3CC3CC3)n(C)c12 (racemic) [Compound I-221] .
10 to 100 µM

Please respond with reported IC50 (system hPAD4 (Homo sapiens, UniProt Q9UM07)) for CO[C@H]1CCN(C(=O)c2ccc3c(c2)nc(-c2cc4cccnc4n2CC2CC2)n3C)C[C@H]1N (single isomer, unassigned) [Compound I-65] .
10 to 100 µM

Please respond with reported IC50 (system hPAD4 (Homo sapiens, UniProt Q9UM07)) for CCn1c(-c2nc3cc(C(=O)N4C[C@H]5CC[C@@H]4[C@@H]5N)cc(OC)c3n2C)cc2ccc(C(F)F)nc21 [Compound I-189] .
< 1 µM

====

Target: hPAD4 (Homo sapiens, UniProt Q9UM07)
Assay: hPAD4 RFMS (RapidFire mass spectrometry) PAD4 inhibition assay;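 for hPAD4 RFMS pIC50: grade E means pIC50 at most 4 and F means pIC50 4.0 to 5.0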
Assay type: biochemical
Conditions: hPAD4 enzyme, RFMS readout; pIC50=−log(IC50); read-out: hPAD4 RFMS pIC50 (converted)
measured.property: IC50

A selection of reference data follows.
- compound: "COc1cc(C(=O)N2CC(O)(C3CCCCN3)C2)cc2nc(-c3cc4cccnc4n3CC3CC3)n(C)c12 (racemic) [Compound I-74]"
  IC50: "10 to 100 µM"
- compound: "COc1cc(C(=O)N2C[C@H](N)CC[C@@H]2CO)cc2nc(-c3cc4cccnc4n3CC3CC3)n(C)c12 (single isomer, unassigned) [Compound I-228]"
  IC50: "1 to 10 µM"

Alright, here's another compound for you.
Dear colleague, please send me the reported IC50 for COc1cc(C(=O)N2CCC[C@@H](N)C2)cc2nc(-c3cc4cccnc4n3CC3CC3)n(C[C@H]3C[C@@](C)(OC)C3)c12 [Compound I-182] when you can.
< 1 µM
